As an illustration, consider measured IC50 for molecules on UniProtKB P57059.

COc1cc(-c2cnc3cc(OCCCN4C5CCC4COC5)ccn23)cc(OC(F)F)c1C(=O)NC1CC1 [compound 292]: 10 to 100 nM
COc1cc(-c2cnc3cc(OCC(O)CN4CCOCC4)ccn23)cc(OC(F)F)c1C(=O)NC1CC1 (centres unmarked) [Cpd 330]: 10 to 100 nM
COc1cc(-c2cnc3cc(OCCN4CC5CCC(C4)O5)ccn23)cc(OC(F)F)c1C(=O)NC1CC1 [compound 195]: 10 to 100 nM
COc1cc(-c2cnc3cc(OCCN(C)c4ccncn4)ccn23)cc(OC(F)F)c1C(=O)NC1CC1 [compound 239]: 0.01 to 10 nM

Please examine the following record next.
Query: Please report IC50 with UniProtKB P57059 for item COc1cc(-c2cnc3cc(OCCN(C)c4ncccn4)ccn23)cc(OC(F)F)c1C(=O)NC1CC1 [compound 238] .
Reply: 0.01 to 10 nM

----------
As an illustration, consider measured IC50 for molecules on SIK1 (Homo sapiens, UniProt P57059).
Sequence (P57059 whole entry): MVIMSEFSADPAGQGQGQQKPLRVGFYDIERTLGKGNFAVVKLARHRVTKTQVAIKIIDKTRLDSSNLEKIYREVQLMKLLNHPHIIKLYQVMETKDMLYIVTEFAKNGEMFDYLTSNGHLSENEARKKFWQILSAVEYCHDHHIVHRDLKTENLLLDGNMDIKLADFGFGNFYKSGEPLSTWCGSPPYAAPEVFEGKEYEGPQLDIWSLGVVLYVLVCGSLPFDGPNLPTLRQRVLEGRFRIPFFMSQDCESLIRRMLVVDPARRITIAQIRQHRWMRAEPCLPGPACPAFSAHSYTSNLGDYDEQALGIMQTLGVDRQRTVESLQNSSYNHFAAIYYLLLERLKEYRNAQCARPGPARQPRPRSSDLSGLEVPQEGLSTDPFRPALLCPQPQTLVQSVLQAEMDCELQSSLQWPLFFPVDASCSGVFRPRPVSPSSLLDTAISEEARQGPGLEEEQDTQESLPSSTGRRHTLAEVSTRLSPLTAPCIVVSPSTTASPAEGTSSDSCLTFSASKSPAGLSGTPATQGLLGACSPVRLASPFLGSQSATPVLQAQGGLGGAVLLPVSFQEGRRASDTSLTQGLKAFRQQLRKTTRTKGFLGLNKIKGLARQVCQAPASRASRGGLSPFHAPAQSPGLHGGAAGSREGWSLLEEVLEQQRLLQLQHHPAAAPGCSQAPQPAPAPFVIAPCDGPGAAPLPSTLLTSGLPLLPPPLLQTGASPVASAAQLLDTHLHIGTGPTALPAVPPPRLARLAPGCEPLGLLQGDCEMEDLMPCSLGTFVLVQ

COCCOCCOc1ccn2c(-c3cc(OC)c(C(=O)NC4CC4)c(OC(F)F)c3)cnc2c1: 0.01 to 0.1 µM
COc1cc(-c2cnc3cc(OCCCN4CC(C)(O)C4)ccn23)cc(OC(F)F)c1C(=O)NC1CC1: 0.01 to 0.1 µM
COc1cc(-c2cnc3cc(OCC(N)C4CCOC4)ccn23)cc(OC(F)F)c1C(=O)NC1CC1 (centres unmarked): 0.01 to 0.1 µM
COc1cc(-c2cnc3cc(OCCN(C)C)ccn23)cc(OC(F)F)c1C(=O)NCC(F)(F)F: 0.1 to 0.5 µM
COc1cc(-c2cnc3cc(OC[C@@H]4COCCO4)ccn23)cc2c1C(=O)N(CC(F)(F)F)CC2: 0.1 to 0.5 µM
COc1cc(-c2cnc3cc(OCC4(O)CCN(C(C)C)C4)ccn23)cc(OC(F)F)c1C(=O)NC1CC1 (centres unmarked): 0.01 to 0.1 µM

Query: Give reported IC50 value for COc1cc(-c2cnc3cc(OCC(C)N(C)C)ccn23)cc(OC(F)F)c1C(=O)NC1CC1 (centres unmarked)
Reply: 0.1 to 0.5 µM

Query: Give reported IC50 value for COc1cc(-c2cnc3cc(OCC4CN(CC#N)C4)ccn23)cc(OC(F)F)c1C(=O)NC1CC1
Reply: 0.01 to 0.1 µM

----------
Biological target: SIK1 (Homo sapiens, UniProt P57059)
measurement-name: IC50

Example entries and their recorded answers appear below.
CN(C)CCOc1ccn2c(-c3cc(F)c(C(=O)NCC(F)(F)F)c(OC(F)F)c3)cnc2c1 [compound 155]: > 500 nM
COc1cc(-c2cnc3cc(OCCN(C)CC#N)ccn23)cc(OC(F)F)c1C(=O)NC1CC1 [compound 215]: 10 to 100 nM
COc1cc(-c2cnc3cc(OCc4nncn4C)ccn23)cc(OC(F)F)c1C(=O)NC1CC1 [compound 227]: 100 to 500 nM
COc1cc(-c2cnc3cc(OC[C@H]4CCN(C5COC5)C4)ccn23)cc(OC(F)F)c1C(=O)NC1CC1 [compound 317]: 10 to 100 nM
COc1cc(-c2cnc3cc(OCCO)ccn23)cc2c1C(=O)N(CC(F)(F)F)CC2 [Cpd 258]: 100 to 500 nM

Query: Please report IC50 with SIK1 (Homo sapiens, UniProt P57059) for item COc1cc(-c2cnc3cc(OC4C[C@H]5CC[C@@H](C4)N5)ccn23)cc(OC(F)F)c1C(=O)NC1CC1.Cl (stereo partly drawn) [Cpd 270, hydrochloride salt] .
Reply: 100 to 500 nM

Query: Please report IC50 with SIK1 (Homo sapiens, UniProt P57059) for item COc1cc(-c2cnc3cc(OCCCN4CCOCC45CCC5)ccn23)cc(OC(F)F)c1C(=O)NC1CC1 [compound 281] .
Reply: 0.01 to 10 nM

Query: Please report IC50 with SIK1 (Homo sapiens, UniProt P57059) for item COc1cc(-c2cnc3cc(OCCCN4CCS(=N)(=O)CC4)ccn23)cc(OC(F)F)c1C(=O)NC1CC1 [compound 327] .
Reply: 10 to 100 nM

Query: Please report IC50 with SIK1 (Homo sapiens, UniProt P57059) for item O=C1c2ncc(-c3cnc4cc(OCCN5CCOCC5)ccn34)cc2CN1CC(F)(F)F [Cpd 266] .
Reply: > 500 nM

Query: Please report IC50 with SIK1 (Homo sapiens, UniProt P57059) for item CCOC(=O)C1(C)CN(CCCOc2ccn3c(-c4cc(OC)c(C(=O)NC5CC5)c(OC(F)F)c4)cnc3c2)C1 [compound 385] .
Reply: 10 to 100 nM

Query: Please report IC50 with SIK1 (Homo sapiens, UniProt P57059) for item COc1cc(-c2cnc3cc(OCCCN4CCc5ncccc5C4)ccn23)cc(OC(F)F)c1C(=O)NC1CC1 [compound 311] .
Reply: 10 to 100 nM

Query: Please report IC50 with SIK1 (Homo sapiens, UniProt P57059) for item COc1cc(-c2cnc3cc(OCCN4CCOCC4)ccn23)cc(C)c1C(=O)NC1CC1 [compound 222] .
Reply: > 500 nM

Query: Please report IC50 with SIK1 (Homo sapiens, UniProt P57059) for item CCOc1cc(-c2cnc3cc(OCCN(C)C)ccn23)cc2c1C(=O)N(CC(F)(F)F)CC2 [compound 140] .
Reply: > 500 nM

Query: Please report IC50 with SIK1 (Homo sapiens, UniProt P57059) for item COc1cc(-c2cnc3cc(OC4CC(C#N)C4)ccn23)cc(OC(F)F)c1C(=O)NC1CC1 (stereo not drawn) [compound 164] .
Reply: 10 to 100 nM

Query: Please report IC50 with SIK1 (Homo sapiens, UniProt P57059) for item COc1cc(-c2cnc3cc(OCCCN4CCC(O)C4)ccn23)cc(OC(F)F)c1C(=O)NC1CC1 (stereo not drawn) [compound 319] .
Reply: 10 to 100 nM
